System: CTK
Construct: gene MATK
test.context: concentration: 1 μM, replicates: in singlicate; n = 1;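 also: KINOMEscan kinase panel screen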
metric.name: %Inh (%)
Answers are plain numbers, in %.

Cc1ccc(C)c(NC(=O)NC2CCN(c3ccnc(Nc4ccc(F)cc4)n3)C2)c1 (stereo not shown) = 0
c1ccc(-c2n[nH]cc2Nc2ccnc3ccccc23)nc1 = 0
COc1cc(Nc2ncc3c(C)nc(-c4cc5ccccc5[nH]4)n3n2)cc(OC)c1OC = 0
Cc1ccc(S(=O)(=O)Nc2ccc(Nc3nccc(Nc4cccc5[nH]ncc45)n3)cc2)cc1 = 0
COc1ccc(Nc2nccc(NCCNC(=O)c3cc4ccccc4s3)n2)cc1 = 0

Provide %Inh values for the following items, in order.
1. NCCCC(NC(=O)c1cc(Br)c(-c2ccnc3[nH]ccc23)s1)c1ccccc1.O=C(O)C(F)(F)F.O=C(O)C(F)(F)F (stereo not shown)
2. COc1cc(Nc2nccc(N3CCC(NC(=O)Nc4cccc(C(C)=O)c4)C3)n2)cc(OC)c1OC (stereo not shown)

1. 0
2. 0

Provide %Inh values for the following items, in order.
1. O=C(Nc1cccc(-c2nn3ccccc3c2-c2ccnc(Nc3cccc(C(F)(F)F)c3)n2)c1)c1c(F)cccc1F
2. Nc1ncc(-c2ccc3nccc(-c4ccncc4)c3c2)cc1S(=O)(=O)N1CCOCC1
3. Cl.NC(=O)c1cccc(Nc2nccc(Nc3ccc(Oc4c(Cl)cccc4Cl)c(Cl)c3)n2)c1

14
0
34

====

Test system: PAK1
test.context: concentration: 1 μM, replicates: in singlicate; n = 1
metric.name: %Inh (%)
One number for each entry, in %.

Consider the worked cases shown below.
CCc1ccc(-c2ccc3c(c2)-c2c(cnn2C)S(=O)(=O)N3C)cc1 = 0
Cc1cccc(NC(=O)Nc2ccc(Oc3ncnc4ccn(C)c34)cc2)c1 = 0
Nc1ncnc2c1nc(-c1ccccc1)n2-c1ccccc1 [SKF-97293] = 29
COc1cccc(NC(=O)NC2CCN(c3ccnc(Nc4cc(OC)c(OC)c(OC)c4)n3)C2)c1 (centres unmarked) [GSK1379763] = 0
CNC(=O)c1ccccc1Nc1nc(Nc2ccc(N3CCOCC3)cc2)ncc1Cl.Cl [GSK1576028] = 71
Cn1cc(-c2ccc3c(c2)CCN3C(=O)Cc2cccc(Cl)c2)c2c(N)ncnc21 [GSK2606590] = 17

Provide %Inh values for the following items, in order.
1. Cc1ccc(C(=O)Nc2ccc(Nc3ccnc4cc(-c5nccs5)ccc34)cc2O)cc1.Cl [GW494702]
2. COc1cccc(C(=O)Nc2cccc(Oc3ccc4nc(NC(=O)C5CC5)cn4n3)c2)c1
3. NCCCC(NC(=O)c1cc(Br)c(-c2ccnc3[nH]ccc23)s1)c1ccccc1.O=C(O)C(F)(F)F.O=C(O)C(F)(F)F (centres unmarked) [GSK1287544]
4. CSc1cccc2c(-c3ccncn3)c(-c3ccc(F)cc3)nn12 [GW514786]
5. COc1cc(Nc2nccc(N3CCC(NC(=O)Nc4cccc(C(C)=O)c4)C3)n2)cc(OC)c1OC (centres unmarked) [GSK1379753]
6. CN(c1ccc(NC(=O)Nc2cc(C(F)(F)F)ccc2F)cc1)c1ccnc(Nc2ccc(S(N)(=O)=O)cc2)n1 [GW809893]
7. O=C(Nc1cccc(Oc2ccc3nc(NC(=O)C4CC4)cn3n2)c1)c1ccccc1C(F)(F)F

[0, 17, 2, 11, 0, 2, 8]

Provide %Inh values for the following items, in order.
1. c1ccc(-c2cnc3nccnn23)cc1 [AH20685]
2. CN(C)S(=O)(=O)c1cc(-c2ccc3nccc(-c4cccc(S(N)(=O)=O)c4)c3c2)cnc1N [GSK1669921]
3. Cn1cc(-c2ccc3c(c2)CCN3C(=O)Cc2cccc(F)c2)c2c(N)ncnc21 [GSK2603358]

1. 13
2. 7
3. 0

Query: %Inh; subject: CCn1c(-c2nonc2N)nc2c(C#CC(C)(C)O)ncc(OCCCCN)c21.O=C(O)C(F)(F)F.O=C(O)C(F)(F)F [GSK507274] 81

====

For each entry below, report its %Inh value.
Test system: TRPM6
test.context: concentration: 1 μM, replicates: in singlicate; n = 1
One number for each entry, in %.

COc1cccc(C2=C(Nc3ccc(Cl)c(C(=O)O)c3)C(=O)NC2=O)c1 = 0
Cc1cccc(Nc2nc(N[C@H]3CCNC3)ncc2C(N)=O)c1.Cl = 34
Cl.c1ccc(-c2ccc3c(Nc4ccc5[nH]ncc5c4)ccnc3c2)nc1 = 25
CC(C)c1nc(-c2cccc(NS(=O)(=O)c3c(F)cccc3F)c2F)c(-c2ccnc(Nc3ccc(N4CCOCC4)nc3)n2)s1 = 57
CCS(=O)(=O)c1ccc(OC)c(Nc2nccc(-c3c(-c4cccc(NC(=O)c5c(F)cccc5F)c4)nn4ncccc34)n2)c1 = 55

Provide %Inh values for the following items, in order.
1. Clc1ccc(-c2nn3ncccc3c2-c2ccnc(Nc3ccc4c(c3)OCCO4)n2)cc1
2. Cc1ccc(S(=O)(=O)Nc2ccc(Nc3nccc(Nc4cccc5[nH]ncc45)n3)cc2)cc1
3. CN(C)Cc1ccc(-c2ccc3c(Nc4ccc(Oc5ccccn5)cc4)ccnc3c2)o1

1. 7
2. 11
3. 52

====

For each entry below, report its %Inh value.
Test system: LCK
test.context: concentration: 1 μM, replicates: in singlicate; n = 1
One number for each entry, in %.

O=C(Nc1n[nH]c2nc(-c3ccc(O)cc3)ccc12)C1CC1 [SB-710363] = 24

Provide %Inh values for the following items, in order.
1. c1ccc(Oc2ccc(Nc3ccnc4cc(-c5ccc(CNCCN6CCOCC6)o5)ccc34)cc2)nc1 [GW567145]
2. NCCCC(NC(=O)c1cc(Br)c(-c2ccnc3[nH]ccc23)s1)c1ccccc1.O=C(O)C(F)(F)F.O=C(O)C(F)(F)F (centres unmarked) [GSK1287544]
3. O=C(Nc1cccc(-c2nn3ncccc3c2-c2ccnc(Nc3ccccc3)n2)c1)c1c(F)cccc1F [GSK198271]
4. Cn1cc(-c2ccc3c(c2)CCN3C(=O)Cc2cccc(F)c2)c2c(N)ncnc21 [GSK2603358]
5. COCCOCCOc1cc2ncc3c4ccc(C#N)cc4[nH]c3c2cc1OC

1: 78; 2: 9; 3: 99.3; 4: 46; 5: 35

Provide %Inh values for the following items, in order.
1. COc1cc(Nc2nccc(N3CCC(NC(=O)Nc4cccc(C(C)=O)c4)C3)n2)cc(OC)c1OC (centres unmarked) [GSK1379753]
2. Cc1ccc(F)c(C(=O)Nc2cccc(-c3nn4ccccc4c3-c3ccnc(Nc4cccc(F)c4)n3)c2)c1F [GSK361061]

[15, 97.1]

====

Tested on: LTK
test.context: concentration: 1 μM, replicates: in singlicate; n = 1
// boundary case: %Inh equal to 20% maps to NO; strictly smaller maps to YES

Known results for compounds:
Fc1ccc(-c2ncn(C3CCNCC3)c2-c2ccnc(Oc3ccc(-c4ccccc4)cc3)n2)cc1 = YES
Cc1ccc(S(=O)(=O)Nc2ccc(Nc3nccc(Nc4cccc5[nH]ncc45)n3)cc2)cc1 = YES
O=C(Nc1ccccc1F)NC1CCN(c2ccnc(Nc3ccc(F)cc3)n2)CC1 = YES
COc1ccc(-c2coc3ccc(-c4nnc(SCc5ccc(OC)c(C(F)(F)F)c5)o4)cc23)cc1 = NO
c1ccc(-c2cnc3nccnn23)cc1 = YES

Please let me know if COc1ccc(Nc2nccc(N3CCC(NC(=O)Nc4cccc(OC)c4)C3)n2)cc1 (centres unmarked) shows %Inh below 20%. YES

Try this compound too: CC(C)c1nc(-c2cccc(NS(=O)(=O)c3c(F)cccc3F)c2F)c(-c2ccnc(Nc3ccc(N4CCOCC4)nc3)n2)s1 YES

Try this compound too: O=C(Nc1cccc(-c2nn3ccccc3c2-c2ccnc(Nc3cccc(C(F)(F)F)c3)n2)c1)c1c(F)cccc1F YES

Try this compound too: Cl.Cl.NCC(NC(=O)c1cc(-c2ccccc2)c(-c2ccnc3[nH]ccc23)s1)c1ccccc1 (centres unmarked) NO

Try this compound too: CNC(=O)c1ccccc1Nc1nc(Nc2ccc(N3CCOCC3)cc2)ncc1Cl.Cl NO

Try this compound too: COc1cc(Nc2nccc(-c3c(-c4cccc(NC(=O)c5c(F)cccc5F)c4)nn4ncccc34)n2)cc(OC)c1OC NO

Try this compound too: CC(C)(C)c1ccc2nccc(Nc3cccc(O)c3)c2c1 YES

Try this compound too: O=C(Nc1n[nH]c2cc(-c3ccoc3)ccc12)C1CC1 YES

Try this compound too: CN1CCN(Cc2cccc(-c3ccc4c(Nc5ccc(Oc6ccccc6)cc5)ccnc4c3)c2)CC1 NO

Try this compound too: Nc1n[nH]c2cnc(-c3ccccc3)cc12 YES

Try this compound too: CCS(=O)(=O)c1ccc(OC)c(Nc2nccc(-c3c(-c4cccc(NC(=O)c5c(F)cccc5F)c4)nn4ncccc34)n2)c1 YES

Try this compound too: Cc1ccc(C(=O)Nc2ccc(Nc3ccnc4cc(-c5nccs5)ccc34)cc2O)cc1.Cl YES

====

Test system: LOK
Construct: gene STK10
test.context: concentration: 1 μM, replicates: in singlicate; n = 1
For each entry below, report its %Inh value.
One number for each entry, in %.

Cc1cccc(Nc2nc(N[C@H]3CCNC3)ncc2C(N)=O)c1.Cl = 0
COc1cccc(C2=C(Nc3ccc(Cl)c(C(=O)O)c3)C(=O)NC2=O)c1 = 0
O=C(Nc1cccc(-c2nn3ccccc3c2-c2ccnc(Nc3cccc(C(F)(F)F)c3)n2)c1)c1c(F)cccc1F = 80
Nc1ncc(-c2ccc3nccc(-c4ccncc4)c3c2)cc1S(=O)(=O)N1CCOCC1 = 0
CCn1c(-c2nonc2N)nc2c(C#CC(C)(C)O)nc(OC[C@H](N)c3ccccc3)cc21 = 1

Provide %Inh values for the following items, in order.
1. COC(=O)Nc1nc2ccc(Oc3ccc(NC(=O)Nc4cc(C(F)(F)F)ccc4F)cc3)cc2n1C.Cl
2. CC(C)(C)c1ccc2nccc(Nc3cccc(O)c3)c2c1
3. COc1cc2c(cc1OCCN1CCNCC1)ncc1c3ccc(C#N)cc3[nH]c21
4. COc1ccc(CNC(=O)NC2CCN(c3ccnc(Nc4ccc(F)cc4)n3)CC2)cc1
5. CCCCc1nn2ncccc2c1-c1ccnc(Nc2ccc(N3CCN(C)CC3)cc2)n1
6. Cl.Cl.NCC(NC(=O)c1cc(-c2ccccc2)c(-c2ccnc3[nH]ccc23)s1)c1ccccc1 (stereo not shown)
7. Fc1ccc(-c2ncn(C3CCNCC3)c2-c2ccnc(Oc3ccc(-c4ccccc4)cc3)n2)cc1
8. CN1CCN(CCCNc2nccc(-c3c(-c4ccc(F)cc4)nn4cc(C(F)(F)F)ccc34)n2)CC1

[99.2, 0, 42, 0, 60, 0, 21, 0]

Provide %Inh values for the following items, in order.
1. Cc1ccc(C(=O)N2CC[C@@H](O)C2)cc1-n1c(C)cc(OCc2ccc(F)cc2F)c(Br)c1=O
2. Nc1ncnc2c1nc(-c1ccccc1)n2-c1ccccc1
3. Cl.c1ccc(-c2ccc3c(Nc4ccc5[nH]ncc5c4)ccnc3c2)nc1
4. COc1cc(Nc2nccc(N3CCC(NC(=O)Nc4cccc(C(C)=O)c4)C3)n2)cc(OC)c1OC (stereo not shown)

0
21
2
20

Provide %Inh values for the following items, in order.
1. c1ccc(Oc2ccc(Nc3ccnc4cc(-c5ccc(CNCCN6CCOCC6)o5)ccc34)cc2)nc1
2. Cn1cc(-c2ccc3c(c2)CCN3C(=O)Cc2cccc(Cl)c2)c2c(N)ncnc21
3. C[C@@H]1CC[C@@H](C(=O)Nc2ccccc2)CN1c1cc(-c2ccc3c(N)n[nH]c3c2)nc(N)n1
4. COc1cccc(-c2ccc3c(NC(=O)C4CC4)n[nH]c3n2)c1
5. CSc1cccc2c(-c3ccncn3)c(-c3ccc(F)cc3)nn12
6. CN1CCN(Cc2cccc(-c3ccc4c(Nc5ccc(Oc6ccccc6)cc5)ccnc4c3)c2)CC1
7. O=c1[nH]cc(-c2ccc(N3CCOCC3)cc2)c2sc(-c3cn[nH]c3)cc12

[30, 98.1, 0, 0, 0, 21, 0]

Provide %Inh values for the following items, in order.
1. CN(c1ccc(NC(=O)Nc2cc(C(F)(F)F)ccc2F)cc1)c1ccnc(Nc2ccc(S(N)(=O)=O)cc2)n1
2. CNC(=O)c1ccccc1Nc1nc(Nc2ccc(N3CCOCC3)cc2)ncc1Cl.Cl
3. COc1cccc(C(=O)Nc2cccc(Oc3ccc4nc(NC(=O)C5CC5)cn4n3)c2)c1
4. O=C(Nc1cccc(-c2nn3ncccc3c2-c2ccnc(Nc3ccccc3)n2)c1)c1c(F)cccc1F
5. COc1cc(Nc2ncc3c(C)nc(-c4cc5ccccc5[nH]4)n3n2)cc(OC)c1OC
6. Cc1ccc(S(=O)(=O)Nc2ccc(Nc3nccc(Nc4cccc5[nH]ncc45)n3)cc2)cc1
7. Cn1cc(-c2ccc3c(c2)CCN3C(=O)Cc2cccc(F)c2)c2c(N)ncnc21
8. Cl.Cl.NCC(NCc1ccc(-c2ccnc3[nH]ccc23)s1)c1ccccc1 (stereo not shown)

100
96.4
96.2
99
8
0
91.9
29

Provide %Inh values for the following items, in order.
1. CC(=O)Nc1nc2cnc(Nc3cc(NC(=O)c4cccc(C5(C#N)CC5)c4Cl)ccc3C)nc2s1
2. Nc1n[nH]c2cnc(-c3ccccc3)cc12

54
0
